# assayed-target: HDAC2 (Homo sapiens)
# Sequence (Q92769 whole entry): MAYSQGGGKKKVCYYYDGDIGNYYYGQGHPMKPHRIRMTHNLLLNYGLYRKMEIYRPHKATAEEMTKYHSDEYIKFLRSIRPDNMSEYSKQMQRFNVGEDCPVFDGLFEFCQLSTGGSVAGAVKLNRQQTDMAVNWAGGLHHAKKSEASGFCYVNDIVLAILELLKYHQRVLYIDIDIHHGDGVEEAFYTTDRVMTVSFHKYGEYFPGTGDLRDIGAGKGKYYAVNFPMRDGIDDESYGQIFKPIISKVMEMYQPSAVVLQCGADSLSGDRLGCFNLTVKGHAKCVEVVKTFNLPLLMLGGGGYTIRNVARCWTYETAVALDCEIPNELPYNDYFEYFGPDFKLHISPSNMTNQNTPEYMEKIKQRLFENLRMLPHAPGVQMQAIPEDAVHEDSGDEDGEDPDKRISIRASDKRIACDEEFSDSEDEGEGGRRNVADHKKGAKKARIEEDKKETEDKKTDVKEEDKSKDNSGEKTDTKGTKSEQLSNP
IC50 reference
Report only the number, with the unit nM understood.

[[record]]
molecule = "CCS(=O)(=O)N1CCN(C(=O)Cc2ccc(NC(=O)CCCCCCC(=O)NO)cc2)CC1 [10a‐nc]"
assayed_target = "HDAC2 (Homo sapiens)"
measure = "IC50"
output_unit = "nM"
recorded_value = 423


Proceed to the following item.
Request: Name the reported IC50 value associated with the molecule C=CS(=O)(=O)N1CCN(C(=O)Cc2ccc(NC(=O)CCCCCCC(=O)NO)cc2)CC1 [Compound 10a]
Response: 88

----------
# Tested on: MM.1S cells
# protocol-summary: CellTiter-Glo cell viability assay
# Format: cell-based
# test-parameters: Homo sapiens, MM1.S; MM.1S cells, 72 h, CellTiter-Glo, n = 3, mean ± SD; read-out: IC50 cell viability
measure: pIC50
Remember, pIC50 is on a log scale: it is -log10 of the molar concentration.

Request: Quick check: pIC50 on MM.1S cells, item C=CS(=O)(=O)N1CCN(C(=O)Cc2ccc(NC(=O)CCCCCCC(=O)NO)cc2)CC1 [Compound 10a] ?
Response: 5.19

Where these numbers come from: paper PMC12238837
